molecule: COC(=O)C(=O)NC1CC(C)(C)N(OC2CCCCC2)C(C)(C)C1
melting point: 124 to 126 °C

molecule: Cc1c(NC(=O)CC(C)(C)C)c2c(c3c1C(c1ccc(C(C)C)cc1)CO3)CCCC2 (centres undefined)
melting point: 183 to 184 °C

molecule: Cc1cc(-c2cc(O)c(SCCc3ccccc3)c(=O)o2)ccc1OCc1ccccn1
melting point: 75 to 77 °C

molecule: COc1cccc2c1CC(C(=O)NCc1ccc(C(=O)O)cc1)N2S(=O)(=O)c1ccc(-c2ccc(F)cc2Cl)cc1 (centres undefined)
melting point: 225 to 234 °C

molecule: CN(C)CC1CCCCN1CC(=O)N1c2ccccc2NC(=O)c2c1ccn2C (centres undefined)
melting point: 163 to 165 °C

molecule: COc1cc(O)c2c(=O)c(OC)c(-c3ccc(OC(=O)C(C)(C)C)c(OC)c3)oc2c1
melting point: 163 to 164 °C

molecule: Nc1ccc(I)cc1C(=O)c1ccccc1Cl
melting point: 120 to 122 °C

molecule: CCN(CC)CCNc1ccc(NCCN(CC)CC)c2c1C(=O)c1c(O)ccc(O)c1C2=O
melting point: 202 to 204 °C

molecule: CC(F)(F)c1cccc(C(=O)O)c1
melting point: 96 to 97 °C

molecule: CCCc1nn(C)c2c(=S)[nH]c(-c3cc(S(=O)(=O)N4C[C@@H](C)N[C@@H](C)C4)ccc3OCC)nc12
melting point: 196 to 199 °C

molecule: O=C(N1CCN(c2ccccc2)CC1)N1CC(Oc2ccc(F)cc2)C1
melting point: 124 to 125 °C

molecule: O=C(O)CCc1oc(-c2ccc3c(c2)OCO3)nc1-c1ccc(Cl)cc1
melting point: 199 to 200 °C

molecule: COc1cc(OC)cc(C2=N[C@H]3CCN(C)C[C@H]3c3ccccc32)c1 (relative stereo)
melting point: 123 to 124 °C

molecule: O=C(Nc1ccc2ccc(Cl)nc2n1)Oc1ccccc1
melting point: 208 °C

molecule: CCCN(CCC)C(=O)CC1CN(Cc2ccccc2)c2ccc(OC(=O)Nc3ccc(C(C)C)cc3)cc21 (centres undefined)
melting point: 157 to 161 °C

molecule: COc1cc(OC)c(CN2CCc3cc(O)c(OC)cc3C2)c(OC)c1
melting point: 150 to 151 °C

molecule: O=C1Cc2cc(C(=O)N3CCN(CCC(=O)c4ccccc4)CC3)ccc2N1
melting point: 208 to 210 °C

molecule: CN(C)Cc1cc2ccc(C(=O)NN)cc2n1S(C)(=O)=O
melting point: 170 to 173 °C

molecule: O=C(N[C@@H](Cc1ccc(OCc2ccccc2)cc1)C(=O)O)c1cn2cc(/C=C/c3ccccc3)ccc2n1
melting point: 262 to 263 °C

molecule: CCCCCCNc1ncnc2c1ncn2C1CC(F)C(CO)O1 (centres undefined)
melting point: 83 °C

molecule: CC(=NNC(=N)N)c1sc(-c2ccc(C3CCCCC3)cc2)nc1C
melting point: 273 to 276 °C

molecule: COc1ccc(N2C(=O)C(Oc3ccccc3)C2c2ccc(C(=O)O)cc2)cc1 (centres undefined)
melting point: 246 °C

molecule: O=C1CCC(N2C(=O)c3ccc(CNC(=O)c4ccco4)cc3C2=O)C(=O)N1 (centres undefined)
melting point: 180 to 182 °C

molecule: Cn1nnnc1CC(=O)c1cc(F)c(F)cc1N
melting point: 162 to 164 °C

molecule: CCOC(CNC(=S)Nc1ccccn1)OCC
melting point: 132 to 133 °C

molecule: COc1cc2cc(CO)nc(-c3cccc(Cl)c3)c2cc1OC
melting point: 118 to 120 °C

molecule: O=P(O)(O)C(O)(CCC1CCCCN1)P(=O)(O)O (centres undefined)
melting point: 193 to 195 °C

molecule: CCc1[nH]nc2c1C(=O)c1c(NC(=O)NN3CCOCC3)cccc1-2
melting point: 253 to 254 °C

molecule: CNC(=O)c1c(NC(=O)c2cc(C(F)(F)F)nn2-c2ncccc2Cl)ccc2ncccc12
melting point: 210 to 211 °C

molecule: CCOC(=O)c1c(SC)n(-c2ccc(F)cc2)c2cc(F)c(F)cc2c1=O
melting point: 167 °C

molecule: CCCc1ccc(-c2ncc(C#N)cn2)cc1
melting point: 126 °C

molecule: O=C(O)Cc1ccc(OCc2cc(Cl)ccc2C(=O)O)cc1
melting point: 197 to 201 °C

molecule: CCCc1nn(-c2ccc(C(F)(F)F)cn2)cc1CCCOc1cccc(CCC(=O)O)c1
melting point: 97 to 98 °C

molecule: CCCCCCS(=O)(=O)c1ccc(S(=O)(=O)CCCCCC)nc1
melting point: 135 to 136 °C

molecule: Cn1cc(CS(C)(=O)=O)c(=O)c2sccc21
melting point: 220 to 223 °C

molecule: Cc1oc(-c2ccccc2)nc1CCSc1ccc(C=O)cc1
melting point: 74 to 76 °C

molecule: O=C(NCc1ccccc1)c1ccnc(NC(=O)c2ccc(C(F)(F)F)cc2)c1
melting point: 181 to 183 °C

molecule: COCCN(CCOC)c1nc(C)[nH]c2c(-c3ccc(Cl)cc3Cl)nc(C)c1-2
melting point: 74 to 75 °C

molecule: CCOC(=O)c1ncc(C)c(-c2ccccc2)c1C(=O)N(CCO)Cc1cc(C(F)(F)F)cc(C(F)(F)F)c1
melting point: 138 to 139 °C

====

Listed here are compounds together with their documented melting point.

compound: Cc1ccccc1-c1c(NC(=O)Nc2c(C)cccc2C)c(=O)oc2c(F)cc(F)cc12
melting point: 221 to 222 °C

compound: CCc1c(Oc2ncc(C(F)(F)F)cc2Cl)n[nH]c1C
melting point: 74 to 75 °C

compound: CCNC(NC(C)=O)C(=O)NCc1ccccc1 (centres undefined)
melting point: 123 to 125 °C

compound: CSc1nn2c(N3CCNCC3)cc(C)nc2c1S(=O)(=O)c1ccccc1
melting point: 137 to 139 °C

compound: COC(=O)c1ccc(-c2cc3c(Nc4cccc(Cl)c4)ncnc3[nH]2)cc1
melting point: > 300 °C

compound: C=C(Cn1ccnc1)c1cc(F)ccc1OCc1c(Cl)cccc1Cl
melting point: 106 to 108 °C

compound: OC1(C(Br)Br)O[C@H](COCc2ccccc2)[C@@H](OCc2ccccc2)[C@H](OCc2ccccc2)[C@H]1OCc1ccccc1 (some centres undefined)
melting point: 77 to 78 °C

compound: CCN1C(=O)C(C)(C)C(=O)N(C)c2cc(OCCCN3C(=O)Cc4ccccc43)ccc21
melting point: 146 to 149 °C

compound: CCCOC(C)c1ccc(OCc2ccccc2)cc1 (single isomer, unassigned; (+))
melting point: 51 to 53 °C

====

In this section we review reported melting point values for a set of molecules.
quantity: melting point (°C)

molecule: CC(CCCn1cc(CCO)c(=O)[nH]c1=O)C(=O)O (stereo not given)
unitsText: °C
measValue: 105
//
molecule: COCCn1nc(C(=O)NCc2ccc(OC(C)(C)C(=O)O)c(C)c2)cc1-c1ccc(C(C)(C)C)cc1
unitsText: °C
measValue: 65

====

The molecules listed here are annotated with their melting point.
quantity: melting point

molecule: CN(C)N=Cc1cn(C)nc1-c1ccc([N+](=O)[O-])o1
measValue: 164 to 165 °C
--
molecule: CC(C)(C)OC(=O)NC1CCCCCC=CC2CC2(C(=O)NS(=O)(=O)C2CC2)NC(=O)C2CC(OC(=O)c3ccc(C#N)cc3)CN2C1=O (centres undefined)
measValue: 164 to 166 °C
--
molecule: O=C(N1CCc2cccc(O)c2CC1)C(F)(F)F
measValue: 183 to 186 °C
--
molecule: COc1c2c(c(OC)c(OC)c1OC)CC(CCCCCCC1Cc3c(c(OC)c(OC)c(OC)c3OC)C1)C2
measValue: 100 to 108 °C
--
molecule: COC(=O)CCc1cc2nc(Cl)ccc2n1S(=O)(=O)c1ccc2ncsc2c1
measValue: 146 °C
--
molecule: CC(C)Nc1n[nH]c2nc(Oc3ccc(F)cc3F)ncc12
measValue: 211 to 214 °C
--
molecule: CCOC(=O)c1cc2ccc3oc4ccccc4c3c2n1C
measValue: 114 to 116 °C
--
molecule: Cc1ncnc(-c2ccncc2)n1
measValue: 99 to 102 °C
--
molecule: CC(C)(C)OC(=O)N1CC[C@H](c2ccc3c(c2)OCO3)[C@@H](OCc2ccc3ccccc3c2)C1 (racemic)
measValue: 128 to 129 °C

====

Quick reference: melting point of the listed items.
quantity: melting point

compound: O=C(O)C1Cc2ccccc2N1S(=O)(=O)c1ccc(-c2ccc(F)cc2F)cc1 (stereo not given)
measValue: 88 to 92 °C
--
compound: O=C(O)c1ccc2oc(COCc3ccccc3)cc2c1
measValue: 129 to 132 °C
--
compound: N#Cc1ccc(N(Cc2ccc(OCc3ccccc3)cc2)n2cnnc2)cc1-c1ccoc1
measValue: 155 to 156 °C
--
compound: Cc1c(Cc2cccc(C(F)(F)F)c2)sc2c(-c3cc(F)cc(C(=O)O)c3)cccc12
measValue: 168 to 169 °C
--
compound: COC(=O)c1ccc2c(c1)CN(c1c(F)cc3c(=O)c(C(=O)O)cn(-c4ccc(F)cc4)c3c1F)C2
measValue: 236 to 240 °C
